# Target of assay: E3 ubiquitin-protein ligase XIAP (Homo sapiens)
# Test details: XIAP binders, primary screen, biophysical, small-molecule microarray, fluorescence 635 nm (AID 1181);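 note: score merges 667 nm emission and signal to noise over triplicate slides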
# Experimental context: small-molecule microarray binding, higher = more signal
Measured metric: composite z-score
The response must contain the number and no unit.

Reference set (3 entries):
- COc1ccc([Si](C)(C)[C@H]2[C@H](CC(=O)N3Cc4ccccc4C[C@H]3CO)O[C@@]3(C(=O)N(Cc4ccc(N5CCC5=O)cc4)c4ccccc43)[C@@H]2C)cc1: 0.216
- CC(C)C[C@@H]1NC(=O)[C@@H]2C[C@H](C(=O)NCCCCCN)[C@H](c3cccc(OCCO)c3)N2C1=O: 0.0337
- CCOc1cc(C(O)C2C=CC3C(=O)N(c4ccccc4)C(=O)C3N2Nc2ccccc2)ccc1O (centres undefined): -0.189

Next up:
Memo: [N-]=[N+]=NCc1ccccc1C[C@@]1(C(=O)NCC(O)CO)N=C(c2ccc(OCCCO)cc2)O[C@@H]1c1ccccc1N=[N+]=[N-] (some centres undefined) , reported composite z-score: 0.1
